# test-target: Prothrombin (Homo sapiens)
measurement-type: Ki (µM)
Answers are plain numbers, in µM.

Qu. Requested read-out: Ki. Entry: c1ccc(CN2CCN(Cc3ccccc3)CCN(Cc3ccccc3)CC2)cc1
Ans. 410
